target: T1, GST-human NOGO-A56 (human); test: SPR (Biacore), GST-human NOGO-A56 amine-coupled to CM5, antibody flowed over, 25 C
T1 construct: Expressed in E. coli BL21 from pGEX-6P1 and purified on glutathione-sepharose; the GST tag is part of the protein in the assays; also called GST-Nogo-A 5+6; GST Nogo-A 5 + 6
T1 sequence (chain, as listed by the source limits assumed): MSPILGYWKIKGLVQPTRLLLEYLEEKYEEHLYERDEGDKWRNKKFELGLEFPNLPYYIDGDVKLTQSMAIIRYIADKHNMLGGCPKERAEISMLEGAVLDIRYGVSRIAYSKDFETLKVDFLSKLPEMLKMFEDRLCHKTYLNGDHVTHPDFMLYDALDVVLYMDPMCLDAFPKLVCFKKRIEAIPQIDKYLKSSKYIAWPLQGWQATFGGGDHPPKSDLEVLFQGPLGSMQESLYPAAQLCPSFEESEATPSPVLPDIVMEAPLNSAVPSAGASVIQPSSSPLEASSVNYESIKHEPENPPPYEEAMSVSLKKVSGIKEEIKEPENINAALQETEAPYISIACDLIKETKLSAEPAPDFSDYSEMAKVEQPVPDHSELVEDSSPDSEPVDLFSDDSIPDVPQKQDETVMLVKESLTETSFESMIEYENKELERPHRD
Kindly state Kd for each of the entries shown.
Give bare numbers, in nM.

[
  {
    "binder": "H27L13 (antibody, human IgG1, kappa, V domains shown, IgG1 (L235A, G237A) / kappa; CAMPATH-1H signal (1-19) left out) VH: QVQLVQSGAEVKKPGASVKVSCKASGYTFTSYWMHWVKQRPGQGLEWIGNINPSNGGTNYNEKFKSKATLTVDKSTSTAYMELSSLRSEDTAVYYCELMQGYWGQGTLVTVSS VL: DIVMTQSPLSLPVTLGQPASISCRSSKSLLYKDGKTYLNWFQQRPGQSPQLLIYLMSTRASGVPDRFSGGGSGTDFTLKISRVEAEDVGVYYCQQLVEYPLTFGQGTKLEIKR",
    "parameter": "Kd",
    "measured-result": 0.291
  }
]

For each entry beneath this line, provide reported Kd.
1. H28L13 (antibody, human IgG1, kappa, V domains shown, IgG1 (L235A, G237A) / kappa; CAMPATH-1H signal (1-19) left out; also called H28FL L13FL) VH: QVQLVQSGAEVKKPGASVKVSCKASGYTFTSYWMHWVRQAPGQGLEWIGNINPSNGGTNYNEKFKSKATMTRDTSTSTAYMELSSLRSEDTAVYYCELMQGYWGQGTLVTVSS VL: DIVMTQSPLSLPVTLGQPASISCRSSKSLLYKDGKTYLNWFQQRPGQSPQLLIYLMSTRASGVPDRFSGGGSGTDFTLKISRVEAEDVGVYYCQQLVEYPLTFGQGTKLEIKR
2. H27L16 (antibody, human IgG1, kappa, V domains shown, IgG1 (L235A, G237A) / kappa; CAMPATH-1H signal (1-19) left out; also called H27FL L16FL) VH: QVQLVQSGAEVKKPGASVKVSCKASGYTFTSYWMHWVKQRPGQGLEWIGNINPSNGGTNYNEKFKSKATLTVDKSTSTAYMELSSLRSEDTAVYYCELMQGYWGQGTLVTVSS VL: DIVMTQSPLSNPVTLGQPVSISCRSSKSLLYKDGKTYLNWFLQRPGQSPQLLIYLMSTRASGVPDRFSGGGSGTDFTLKISRVEAEDVGVYYCQQLVEYPLTFGQGTKLEIKR
3. H26L13 (antibody, human IgG1, kappa, V domains shown, H26 FL is H6 FL with G95M (Kabat); IgG1 (L235A, G237A) / kappa; CAMPATH-1H signal (1-19) left out; also called H6(G95M)L13; H6L13 with VH CDR3 MQGY) VH: QVQLVQSGAEVKKPGASVKVSCKASGYTFTSYWMHWVRQAPGQGLEWIGNINPSNGGTNYNEKFKSRATMTRDTSTSTAYMELSSLRSEDTAVYYCELMQGYWGQGTLVTVSS VL: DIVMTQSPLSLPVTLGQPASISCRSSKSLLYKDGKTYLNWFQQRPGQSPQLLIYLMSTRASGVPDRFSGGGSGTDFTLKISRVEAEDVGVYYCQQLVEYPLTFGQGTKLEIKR
4. HcLc (chimera of 2A10: murine 2A10 VH and VL with human IgG constant regions) (antibody, V domains shown, also called chimeric antibody; chimeric form of the parental antibody) VH: QVQLQQPGTELVKPGASVKLSCKASGYTFTSYWMHWVKQRPGQGLEWIGNINPSNGGTNYNEKFKSKATLTVDKSSSTAYMQLSSLTSEDSAVYYCELGQGYWGQGTLVTVSS VL: DIVITQDELSNPVTSGESVSISCRSSKSLLYKDGKTYLNWFLQRPGQSPQLLIYLMSTRASGVSDRFSGSGSGTDFTLEISRVKAEDVGVYYCQQLVEYPLTFGAGTKLELKR

OUT:
[0.454, 0.194, 0.963, 0.779]
